# credit: the supplement of paper PMC9732359

PROCEDURE DETAILS: protein stability index of a GFP-peptide fusion (yeast GPS) (PSI 1-4); higher = more stable; sorted into four equal gates, so the index is relative within each strain
MEASUREMENT CONDITIONS: doa10∆
Response key: 1.0 means protein stability index >= 2; 0.0 means protein stability index < 2.

Example entries and their recorded answers appear below.
SEQUENCE CODE	CLASSIFICATION
RLNYLYQISAYQTRARQ [RPR2]	0.0
EASSLGYLDDSEILIIS [IRR1]	1.0
GNIQISEYNFLEGSVSL [DIS3]	1.0

[in] Does protein stability index meet or surpass 2 for KNVKHSGNIQLDEIIEI [RPL12A] ?
[out] 1.0

[in] Cool, now LYASDYASYFPYLLETY [RPN7]
[out] 0.0

[in] Cool, now SRENNSEYMVFGKLAFP [YJL039C/NUP192]
[out] 1.0

[in] Cool, now FVNETPRVIEPVYTAQW [PRP8]
[out] 0.0

[in] Cool, now SAAELERLDKDKDRDTR [SNF5]
[out] 0.0

[in] Cool, now IRIFRSELQRLSHENNV [RPT5]
[out] 1.0

---

PROCEDURE DETAILS: protein stability index of a GFP-peptide fusion (yeast GPS) (PSI 1-4); higher = more stable; sorted into four equal gates, so the index is relative within each strain
MEASUREMENT CONDITIONS: ubr1∆
QUANTITY MEASURED: protein stability index
Answers are plain numbers.

SEQUENCE CODE	protein stability index
EIEMKNKLEKLNSLLTY [SMC4]	1.61
IIKRSNGQSLSPVRSDS [YMR153W/NUP53]	2.81
SVKFTHIAHTLPEKVNF [SSN2]	1.92
NENPINKIMTNQINSFW [NUT1]	2.9
TYSTPKRPYESSRLDAE [RPS9A]	2.87
GEIQLLFQRQKLHEFYL [IRR1]	2.9

[in] Which protein stability index reading was recorded for the sequence DLVHIKDSLDNTFVTRL [RPS4A] ?
[out] 3.04

---

PROCEDURE DETAILS: protein stability index of a GFP-peptide fusion (yeast GPS) (PSI 1-4); higher = more stable; sorted into four equal gates, so the index is relative within each strain
MEASUREMENT CONDITIONS: ubr1∆
Response key: TRUE means protein stability index >= 3; FALSE means protein stability index < 3.

SEQUENCE CODE	CLASSIFICATION
TASDQLFGMCESLYEPN [PUP3]	FALSE
KNTEEGKALVHHYEECA [QCR6]	TRUE
SNTRTMTYKNKLTVCFD [MED2]	FALSE
SEEINQYVTQIEQEKQE [PRE6]	FALSE
PEMSNLYRLSTPLRDEV [PRP8]	FALSE
NENDSQAIITERLVEFS [YIL149C/MLP2]	FALSE
LKIIYTGLCSFDYSVIL [YJL039C/NUP192]	FALSE
YDRHQSSSKQQSRLFIN [SMC4]	TRUE

# input for lookup
[in] Does protein stability index meet or surpass 3 for TNPSSIFGGAGGVPTTS [YOR098C/NUP1] ?
[out] FALSE

---

PROCEDURE DETAILS: protein stability index of a GFP-peptide fusion (yeast GPS) (PSI 1-4); higher = more stable; sorted into four equal gates, so the index is relative within each strain
MEASUREMENT CONDITIONS: pdr5∆
Please respond with reported protein stability index for every item in the list.
One number for each entry.

Some entries whose results are on file:
SEQUENCE CODE	protein stability index
CKLFLADVFTDDDLFET [YCG1]	3.06
TAKRKSRKRKPKSASNT [IRR1]	3.21
PEEEAAIRRENEWAEDR [SKP1]	3.15

Answer for every listed entry: what is its protein stability index? The entries follow.
1. DDFDMLFGENDTSTQAY [NUT1]
2. YFYDLDVLKDGENNINF [BRN1]
3. EKELQNEIKQLGSDSSD [SRB4]
4. STSYAIKKKDELERVAK [RPS5]

[out]
3.37
3.4
2.81
3.52

Answer for every listed entry: what is its protein stability index? The entries follow.
1. DSTAVALEEGLNEEAVI [YJL039C/NUP192]
2. EPELRVLSTEEILNIFK [RPO21]
3. RFEVINNETEQLKAEEK [SMC1]

[out]
3.12
3.45
2.06

Answer for every listed entry: what is its protein stability index? The entries follow.
1. LSLHTGFIENCNGSALV [MTR3]
2. TAVNGIDTDLFGAPNNP [YGL172W/NUP49]
3. PIFDYIHIDALELAGMD [SIR3]
4. CESCSTVLCTPTGGKAK [RPS27B]

[out]
1. 3
2. 3.23
3. 1.79
4. 2.5

---

PROCEDURE DETAILS: protein stability index of a GFP-peptide fusion (yeast GPS) (PSI 1-4); higher = more stable; sorted into four equal gates, so the index is relative within each strain
MEASUREMENT CONDITIONS: doa10∆
Please respond with reported protein stability index for every item in the list.
Answers are plain numbers.

Some entries whose results are on file:
SEQUENCE CODE	DATA VALUE
KLKQLLDESSEQKNTAK [YIL149C/MLP2]	3.02
ATGNESQDATKVDATPE [YLR335W/NUP2]	2.87
EAAAVRDLSEASVYPEY [RPS26A]	2.25
EMKTQAAELQEKPLTPL [SNF6]	2.97
LGVASFHGTSTKANDKN [FAS2]	3.09
RTMYFILDGQDVEENRS [YJR042W/NUP85]	2.45
AQFTFGKAATAKETHTK [YOR098C/NUP1]	2.84
DWQMMTSPVTGATEKRK [CSL4]	2.44

Answer for every listed entry: what is its protein stability index? The entries follow.
1. LPPPEDVAFLKTAYSIY [RPN1]
2. GISEVQARKSKSVSFYA [RPT5]
3. PSLIQEEEEDTTTTANI [NUT1]
4. HEAKERIRQKEVTAGEA [SNF6]
5. EKASRQQRKQKKNRDKK [RPS24A]
6. SASLFKQRKNPRRIAWT [RPL24A]

[out]
1. 2.4
2. 3.4
3. 3.04
4. 3
5. 3.44
6. 2.55

---

PROCEDURE DETAILS: protein stability index of a GFP-peptide fusion (yeast GPS) (PSI 1-4); higher = more stable; sorted into four equal gates, so the index is relative within each strain
MEASUREMENT CONDITIONS: pdr5∆
Please respond with reported protein stability index for every item in the list.
One number for each entry.

SEQUENCE CODE	protein stability index
GKKASLNVGNVLPLGSV [RPL2A]	2.29

Answer for every listed entry: what is its protein stability index? The entries follow.
1. IQRTRERKKSIGSQRGR [DSN1]
2. KPSNGKGSRKSSKAATP [SNF12]
3. SKVTVPPSKHSTLTLSD [ESC2]
4. LKLLVKLYTFLARRTDA [RPL18A]
5. AAELQEKPLTPLKYTKL [SNF6]
6. VGKRVRYLVGGNKIQKV [RPS7A]

[out]
[2.5, 3.02, 3.09, 1.99, 3.02, 1.98]

[in] Which protein stability index reading was recorded for the sequence SGKARICIVGGYDDFQE [FAS2] ?
[out] 2.24

---

Please respond with reported protein stability index for every item in the list.
PROCEDURE DETAILS: protein stability index of a GFP-peptide fusion (yeast GPS) (PSI 1-4); higher = more stable; sorted into four equal gates, so the index is relative within each strain
MEASUREMENT CONDITIONS: pdr5∆
Give bare numbers.

Some entries whose results are on file:
SEQUENCE CODE	protein stability index
IPYSRNAPAWFKLSSES [RPS13]	1.92
TRDDLLTILMRSIMKNR [RRI2]	2.61
LQKEKELHKEGTISKLE [SMC2]	3.08
EPNSAKKIRFLQLIIFL [RGR1]	2.42
PSKKLKTEDGFVIPALP [RPC82]	3.19
IDVNLNFARQLLFNNDF [RRP40]	1.56

Answer for every listed entry: what is its protein stability index? The entries follow.
1. MTVNDQPIEKNGDKMPL [YJR042W/NUP85]
2. SFPILDQCVGQVGLNFE [YMR129W/POM152]

[out]
3.04
2.96

---

Please respond with reported protein stability index for every item in the list.
PROCEDURE DETAILS: protein stability index of a GFP-peptide fusion (yeast GPS) (PSI 1-4); higher = more stable; sorted into four equal gates, so the index is relative within each strain
MEASUREMENT CONDITIONS: pdr5∆

SEQUENCE CODE	protein stability index
PDDEKFTDENTIVLSLN [RPC40]	3.6

Answer for every listed entry: what is its protein stability index? The entries follow.
1. ISLRNNMFELAQQLVGV [SMC4]
2. TEKDDNKTNNEDLFDDY [NUT1]

[out]
1.74
3.25

Answer for every listed entry: what is its protein stability index? The entries follow.
1. RSRYRREIDALKKQLHV [YIL149C/MLP2]
2. SDNVYLKLLVKLYTFLA [RPL18A]
3. TISVPQIRDVMERFSVL [RRP6]

[out]
[3.16, 1.99, 2.7]

Answer for every listed entry: what is its protein stability index? The entries follow.
1. IYPRTVIDIEIHVLEQD [SKI6]
2. MSDLFTFDWFIKTRTVH [ISW2]
3. REYLEEYKSLFVVGVDN [RPP0]

[out]
1. 1.88
2. 3.17
3. 2.55

Answer for every listed entry: what is its protein stability index? The entries follow.
1. QRVRNMRELGLIQSTEF [YOR098C/NUP1]
2. NRQQKKRRFDPSSSDSN [RRP6]
3. IWLKDFIAVGQILPESQ [SIR3]
4. IGIVDYEAGASHGNPVV [FAS1]
5. FFKPLDYITEAVFKIVL [SNU114]
6. LQVADKFFRVKYENKIS [SMC3]
7. ELKPVSLDNKTLDDLVT [YJL041W/NSP1]

[out]
2.03
2.69
2.37
2.99
1.95
2.3
3.04
